These entries and their values trace back to paper PMC9007951.

assay: Timed organ biodistribution of [^64Cu]Cu-DOTATATE by ex vivo gamma counting; format: in vivo, mice; conditions: mouse, tail, intravenous, 1.85 MBq, total radioactivity; female C57BL/6 mice, 5 min after injection, median (IQR), N=3-7; read-out: Tissue radioactivity, tail
Readout name: tissue uptake at 5 min (%ID/g)
Numbers only, in %ID/g.

query: Give reported tissue uptake at 5 min value for C[C@@H](O)[C@H](NC(=O)[C@@H]1CSSC[C@H](NC(=O)[C@@H](Cc2ccccc2)NC(=O)CN2CCN(CC(=O)O)CCN(CC(=O)O)CCN(CC(=O)O)CC2)C(=O)N[C@@H](Cc2ccc(O)cc2)C(=O)N[C@H](Cc2c[nH]c3ccccc23)C(=O)N[C@@H](CCCCN)C(=O)N[C@@H]([C@@H](C)O)C(=O)N1)C(=O)O [[^64Cu]Cu-DOTATATE, metal not drawn]
result: 2.7

* * *

experiment: Timed organ biodistribution of [^64Cu]Cu-DOTATATE by ex vivo gamma counting; assay type: in vivo, mice; details: mouse, thoracic aorta, intravenous, 1.85 MBq, total radioactivity; female C57BL/6 mice, 1 min after injection, median (IQR), N=3-7; read-out: Tissue radioactivity, thoracic aorta
Readout name: tissue uptake at 1 min (%ID/g)
Give bare numbers, in %ID/g.

query: Give reported tissue uptake at 1 min value for C[C@@H](O)[C@H](NC(=O)[C@@H]1CSSC[C@H](NC(=O)[C@@H](Cc2ccccc2)NC(=O)CN2CCN(CC(=O)O)CCN(CC(=O)O)CCN(CC(=O)O)CC2)C(=O)N[C@@H](Cc2ccc(O)cc2)C(=O)N[C@H](Cc2c[nH]c3ccccc23)C(=O)N[C@@H](CCCCN)C(=O)N[C@@H]([C@@H](C)O)C(=O)N1)C(=O)O [[^64Cu]Cu-DOTATATE, metal not drawn]
result: 3.2

* * *

test: Timed organ biodistribution of [^64Cu]Cu-DOTATATE by ex vivo gamma counting; type: in vivo, mice; conditions: mouse, fat, intravenous, 1.85 MBq, total radioactivity; female Apoe^-/- mice 12 weeks on Western Diet, 5 min after injection, median (IQR), N=3-8; read-out: Tissue radioactivity, fat
Readout name: tissue uptake at 5 min (%ID/g)
Answers are plain numbers, in %ID/g.

query: Give reported tissue uptake at 5 min value for C[C@@H](O)[C@H](NC(=O)[C@@H]1CSSC[C@H](NC(=O)[C@@H](Cc2ccccc2)NC(=O)CN2CCN(CC(=O)O)CCN(CC(=O)O)CCN(CC(=O)O)CC2)C(=O)N[C@@H](Cc2ccc(O)cc2)C(=O)N[C@H](Cc2c[nH]c3ccccc23)C(=O)N[C@@H](CCCCN)C(=O)N[C@@H]([C@@H](C)O)C(=O)N1)C(=O)O [[^64Cu]Cu-DOTATATE, metal not drawn]
result: 0.4

* * *

Test: Timed organ biodistribution of [^64Cu]Cu-DOTATATE by ex vivo gamma counting
Assay type: in vivo, mice
Conditions: mouse, liver, intravenous, 1.85 MBq, total radioactivity; female C57BL/6 mice, 1 min after injection, median (IQR), N=3-7; read-out: Tissue radioactivity, liver
Experimental: Wild-type and atherosclerotic animals were injected with approximately 1.85 MBq of [^64Cu]Cu-DOTATATE and euthanized at either 1, 5, 15, 30, 60 or 120 min after injection (Supplementary Fig. S1A) to evaluate the tracer’s biodistribution. […] Values were corrected for decay and normalized to tissue weight to express radioactivity concentration as percentage injected dose per gram (%ID/g). […] Plasma (supernatant) and cells (pellet) were gamma counted and expressed as percentage of total activity. […]
Readout name: tissue uptake at 1 min (%ID/g)
Answers are plain numbers, in %ID/g.

query: Give reported tissue uptake at 1 min value for C[C@@H](O)[C@H](NC(=O)[C@@H]1CSSC[C@H](NC(=O)[C@@H](Cc2ccccc2)NC(=O)CN2CCN(CC(=O)O)CCN(CC(=O)O)CCN(CC(=O)O)CC2)C(=O)N[C@@H](Cc2ccc(O)cc2)C(=O)N[C@H](Cc2c[nH]c3ccccc23)C(=O)N[C@@H](CCCCN)C(=O)N[C@@H]([C@@H](C)O)C(=O)N1)C(=O)O [[^64Cu]Cu-DOTATATE, metal not drawn]
result: 10

* * *

Assay: In vivo PET/CT of cardiac inflammation in infarcted mice
Conditions: female, mouse, heart, iv, 5.55 MBq, total radioactivity, healthy C57Bl/6 mice, tracer circulated 60 min, median, N = 4, read-out: SUVmax heart of control animals
Procedure: Myocardial infarction in mice was induced by permanent ligation of the left anterior descending (LAD) coronary artery of female C57Bl/6 mice (N = 18). Briefly, animals were anesthetized with xylazine (10 mg/kg) and ketamine (100 mg/kg) and intubated using an endotracheal intubation kit from Braintree Scientific (Braintree, MA). […] Using OsiriX v5.6 software (OsiriX Foundation, Geneva, Switzerland), regions of interest (ROIs) were drawn to determine organ radioactivity concentration. […]
Readout name: SUV at 1 h (SUV)
Numbers only, in SUV.

query: Give reported SUV at 1 h value for C[C@@H](O)[C@H](NC(=O)[C@@H]1CSSC[C@H](NC(=O)[C@@H](Cc2ccccc2)NC(=O)CN2CCN(CC(=O)O)CCN(CC(=O)O)CCN(CC(=O)O)CC2)C(=O)N[C@@H](Cc2ccc(O)cc2)C(=O)N[C@H](Cc2c[nH]c3ccccc23)C(=O)N[C@@H](CCCCN)C(=O)N[C@@H]([C@@H](C)O)C(=O)N1)C(=O)O [[^64Cu]Cu-DOTATATE, metal not drawn]
result: 0.6

* * *

assay: Timed organ biodistribution of [^64Cu]Cu-DOTATATE by ex vivo gamma counting; assay type: in vivo, mice; conditions: mouse, heart, intravenous, 1.85 MBq, total radioactivity; female Apoe^-/- mice 12 weeks on Western Diet, 60 min after injection, median (IQR), N=3-8; read-out: Tissue radioactivity, heart
Readout name: tissue uptake at 1 h (%ID/g)
Numbers only, in %ID/g.

query: Give reported tissue uptake at 1 h value for C[C@@H](O)[C@H](NC(=O)[C@@H]1CSSC[C@H](NC(=O)[C@@H](Cc2ccccc2)NC(=O)CN2CCN(CC(=O)O)CCN(CC(=O)O)CCN(CC(=O)O)CC2)C(=O)N[C@@H](Cc2ccc(O)cc2)C(=O)N[C@H](Cc2c[nH]c3ccccc23)C(=O)N[C@@H](CCCCN)C(=O)N[C@@H]([C@@H](C)O)C(=O)N1)C(=O)O [[^64Cu]Cu-DOTATATE, metal not drawn]
result: 1.3

* * *

Test: Timed organ biodistribution of [^64Cu]Cu-DOTATATE by ex vivo gamma counting
Type: in vivo, mice
Settings: mouse, spleen, intravenous, 1.85 MBq, total radioactivity; female C57BL/6 mice, 120 min after injection, median (IQR), N=3-7; read-out: Tissue radioactivity, spleen
Method: Wild-type and atherosclerotic animals were injected with approximately 1.85 MBq of [^64Cu]Cu-DOTATATE and euthanized at either 1, 5, 15, 30, 60 or 120 min after injection (Supplementary Fig. S1A) to evaluate the tracer’s biodistribution. […] Values were corrected for decay and normalized to tissue weight to express radioactivity concentration as percentage injected dose per gram (%ID/g). […] Plasma (supernatant) and cells (pellet) were gamma counted and expressed as percentage of total activity. […]
Readout name: tissue uptake at 2 h (%ID/g)
One number for each entry, in %ID/g.

query: Give reported tissue uptake at 2 h value for C[C@@H](O)[C@H](NC(=O)[C@@H]1CSSC[C@H](NC(=O)[C@@H](Cc2ccccc2)NC(=O)CN2CCN(CC(=O)O)CCN(CC(=O)O)CCN(CC(=O)O)CC2)C(=O)N[C@@H](Cc2ccc(O)cc2)C(=O)N[C@H](Cc2c[nH]c3ccccc23)C(=O)N[C@@H](CCCCN)C(=O)N[C@@H]([C@@H](C)O)C(=O)N1)C(=O)O [[^64Cu]Cu-DOTATATE, metal not drawn]
result: 0.5

* * *

experiment: Timed organ biodistribution of [^64Cu]Cu-DOTATATE by ex vivo gamma counting; assay type: in vivo, mice; conditions: mouse, kidneys, intravenous, 1.85 MBq, total radioactivity; female Apoe^-/- mice 12 weeks on Western Diet, 5 min after injection, median (IQR), N=3-8; read-out: Tissue radioactivity, kidneys
Readout name: tissue uptake at 5 min (%ID/g)
One number for each entry, in %ID/g.

query: Give reported tissue uptake at 5 min value for C[C@@H](O)[C@H](NC(=O)[C@@H]1CSSC[C@H](NC(=O)[C@@H](Cc2ccccc2)NC(=O)CN2CCN(CC(=O)O)CCN(CC(=O)O)CCN(CC(=O)O)CC2)C(=O)N[C@@H](Cc2ccc(O)cc2)C(=O)N[C@H](Cc2c[nH]c3ccccc23)C(=O)N[C@@H](CCCCN)C(=O)N[C@@H]([C@@H](C)O)C(=O)N1)C(=O)O [[^64Cu]Cu-DOTATATE, metal not drawn]
result: 22.9

* * *

test: Timed organ biodistribution of [^64Cu]Cu-DOTATATE by ex vivo gamma counting; type: in vivo, mice; conditions: mouse, bone marrow, intravenous, 1.85 MBq, total radioactivity; female Apoe^-/- mice 12 weeks on Western Diet, 1 min after injection, median (IQR), N=3-8; read-out: Tissue radioactivity, bone marrow
Readout name: tissue uptake at 1 min (%ID/g)
Give bare numbers, in %ID/g.

query: Give reported tissue uptake at 1 min value for C[C@@H](O)[C@H](NC(=O)[C@@H]1CSSC[C@H](NC(=O)[C@@H](Cc2ccccc2)NC(=O)CN2CCN(CC(=O)O)CCN(CC(=O)O)CCN(CC(=O)O)CC2)C(=O)N[C@@H](Cc2ccc(O)cc2)C(=O)N[C@H](Cc2c[nH]c3ccccc23)C(=O)N[C@@H](CCCCN)C(=O)N[C@@H]([C@@H](C)O)C(=O)N1)C(=O)O [[^64Cu]Cu-DOTATATE, metal not drawn]
result: 3.1
